Recorded IC50 for the following compounds
experiment: Inhibition of TNF-alpha stimulated NF-kappaB (unknown origin) expressed in mouse NIH/3T3 cells after 6 hrs by luciferase reporter gene assay; format: cell-based; conditions: NIH3T3, 6 h

structure: COC(=O)[C@]12CCC(C)(C)C[C@H]1C1=CC[C@@H]3[C@@]4(C)C=C(C#Cc5ccccc5)C(=O)C(C)(C)[C@@H]4CC[C@@]3(C)[C@]1(C)CC2
IC50: > 25 µM
//
structure: COC(=O)[C@]12CCC(C)(C)C[C@H]1C1=CC[C@@H]3[C@@]4(C)C=C(C#N)C(=O)C(C)(C)[C@@H]4CC[C@@]3(C)[C@]1(C)CC2
IC50: 15.3 µM
//
structure: COC(=O)[C@]12CCC(C)(C)C[C@H]1C1=CC[C@@H]3[C@@]4(C)CC(C#N)=C(O)C(C)(C)[C@@H]4CC[C@@]3(C)[C@]1(C)CC2
IC50: > 25 µM
//
structure: COC(=O)[C@]12CCC(C)(C)C[C@H]1C1=CC[C@@H]3[C@@]4(C)C=C(c5ccc(C#N)cc5)C(=O)C(C)(C)[C@@H]4CC[C@@]3(C)[C@]1(C)CC2
IC50: > 25 µM
//
structure: COC(=O)[C@]12CCC(C)(C)C[C@H]1C1=CC[C@@H]3[C@@]4(C)C=C(Br)C(=O)C(C)(C)[C@@H]4CC[C@@]3(C)[C@]1(C)CC2
IC50: > 25 µM

Any idea what IC50 was measured for COC(=O)[C@]12CCC(C)(C)C[C@H]1C1=CC[C@@H]3[C@@]4(C)Cc5cnoc5C(C)(C)[C@@H]4CC[C@@]3(C)[C@]1(C)CC2 ?
> 25 µM

* * *

Recorded pIC50 for the following compounds
assay: Inhibition of TNF-alpha stimulated NF-kappaB (unknown origin) expressed in mouse NIH/3T3 cells after 6 hrs by luciferase reporter gene assay; assay type: cell-based; settings: NIH3T3, 6 h
pIC50: −log10 of the molar value.

Any idea what pIC50 was measured for COC(=O)[C@]12CCC(C)(C)C[C@H]1C1=CC[C@@H]3[C@@]4(C)C=C(C=O)C(=O)C(C)(C)[C@@H]4CC[C@@]3(C)[C@]1(C)CC2 ?
5.11

Any idea what pIC50 was measured for CC1(C)CC[C@]2(C(=O)O)CC[C@]3(C)C(=CC[C@@H]4[C@@]5(C)CC[C@H](O)C(C)(C)[C@@H]5CC[C@]43C)[C@@H]2C1 ?
< 4.30

Any idea what pIC50 was measured for CCOC(=O)/C=C/C1=C[C@]2(C)[C@H]3CC=C4[C@@H]5CC(C)(C)CC[C@]5(C(=O)OC)CC[C@@]4(C)[C@]3(C)CC[C@H]2C(C)(C)C1=O ?
< 4.60

Any idea what pIC50 was measured for COC(=O)[C@]12CCC(C)(C)C[C@H]1[C@H]1C(=O)C=C3[C@@]4(C)C=C(C#N)C(=O)C(C)(C)[C@@H]4CC[C@@]3(C)[C@]1(C)CC2 ?
5.62 to 5.92

Any idea what pIC50 was measured for COC(=O)[C@]12CCC(C)(C)C[C@H]1C1=CC[C@@H]3[C@@]4(C)C=C(I)C(=O)C(C)(C)[C@@H]4CC[C@@]3(C)[C@]1(C)CC2 ?
< 4.60

# credit: ChEMBL document CHEMBL4190292
